# Tested on: NCI-H2023
# assayNotes: relative viability (nuclei count vs DMSO), 5 days (fraction); higher = more cells survive
# cond: first compound 0.8 µM
Consider the following compounds; for each one, report its relative viability.
// no unit, no text: just the number

Can you share its relative viability? I mean this compound: Cc1cnc(-c2cnc(NCCNc3ccc(C#N)cn3)nc2-c2ccc(Cl)cc2Cl)[nH]1 + CS(=O)(=O)N1CCN(Cc2cc3nc(-c4cccc5[nH]ncc45)nc(N4CCOCC4)c3s2)CC1 [Pictilisib] (partner 1 µM)
0.307

Entry O=c1[nH]c2ccccc2n1C1CCN(CCCC(c2ccc(F)cc2)c2ccc(F)cc2)CC1 [Pimozide] + O=C(c1cc(Cc2n[nH]c(=O)c3ccccc23)ccc1F)N1CCN(C(=O)C2CC2)CC1 [Olaparib] (partner 8 µM) please
0.444

Entry Cc1cnc(-c2cnc(NCCNc3ccc(C#N)cn3)nc2-c2ccc(Cl)cc2Cl)[nH]1 + COc1cc2c(Oc3ccc(NC(=O)C4(C(=O)Nc5ccc(F)cc5)CC4)cc3F)ccnc2cc1OCCCN1CCOCC1 [Foretinib] (partner 0.25 µM) please
0.938

Entry Cc1cnc(-c2cnc(NCCNc3ccc(C#N)cn3)nc2-c2ccc(Cl)cc2Cl)[nH]1 + Cc1cc(Nc2cc(N3CCN(C)CC3)nc(Sc3ccc(NC(=O)C4CC4)cc3)n2)n[nH]1 [Tozasertib] (partner 0.1 µM) please
0.325
